Value source: paper PMC2720045

# systemTested: PRD25N (HIV-1 protease D25N mutant) (Human immunodeficiency virus type 1, UniProt P03367, D525N, form not given)
# testDetails: DSC thermal denaturation of PRD25N with inhibitors
# Assay type: binding
# runConditions: inhibitor 28 μM, pH 4.8-5.0; unliganded PRD25N 58.4

testSmiles	Tm PRD25N [°C]
CC(C)c1nc(CN(C)C(=O)N[C@H](C(=O)N[C@@H](Cc2ccccc2)C[C@H](O)[C@H](Cc2ccccc2)NC(=O)OCc2cncs2)C(C)C)cs1	61.1
CC(C)(C)NC(=O)[C@@H]1C[C@@H]2CCCC[C@@H]2CN1C[C@@H](O)[C@H](Cc1ccccc1)NC(=O)[C@H](CC(N)=O)NC(=O)c1ccc2ccccc2n1	62.6
O=C1N(Cc2ccc(CO)cc2)[C@H](Cc2ccccc2)[C@H](O)[C@@H](O)[C@@H](Cc2ccccc2)N1Cc1ccc(CO)cc1	67.3
COC(=O)N[C@H](C(=O)N[C@@H](Cc1ccccc1)[C@@H](O)CN(Cc1ccc(-c2ccccn2)cc1)NC(=O)[C@@H](NC(=O)OC)C(C)(C)C)C(C)(C)C	61.4
CC(C)CN(C[C@@H](O)[C@H](Cc1ccccc1)NC(=O)O[C@H]1CCOC1)S(=O)(=O)c1ccc(N)cc1	58.7
